# measurement.protocol: P. falciparum Dd2 growth inhibitors, primary screen, SYBR Green fluorescence, single dose replicates (AID 1159554)
# assay.setup: 72 h, at 10 µM
About 2,100 (2.2%) of roughly 94,000 compounds were called active. Rule as the data show it: active = activity change below about -80%; inconclusive = no clear call, values can overlap the other calls; inactive = above that. What follows is part of a selection rich in actives, with near analogues and random picks from the rest.
Return exactly one item of yes (1) (active), no (0) (inactive)

| structure.smiles | assigned.category |
| --- | --- |
| COc1ccccc1S(=O)(=O)N1C[C@@H](O)COC[C@H]2O[C@H](CC(=O)O)CC[C@@H]21 | no (0) |
| COCCNC[C@@H]1[C@H](c2ccccc2)[C@H](CO)N1c1nc(C)c(C)s1 | no (0) |
| COCC(=O)N1CC2(C1)[C@@H](c1ccc(-c3cccc(F)c3)cc1)[C@@H](CO)N2C(=O)COC | no (0) |
| COc1cccc(CNC(=O)[C@@H]2[C@@H](CO)[C@@H]3Cn4c(ccc(-c5cccnc5)c4=O)[C@@H]3N2C)c1 | no (0) |
| O=C(C1CCCC1)N1[C@H](CO)[C@@H](c2ccccc2)C12CN(CCC(F)(F)F)C2 | no (0) |

Dear colleague, could you share the recorded outcome for Cc1nc(N2[C@H](CO)[C@H](c3ccccc3)[C@H]2CNCC2CCCCC2)sc1C when you have a moment?
yes (1)

Query COCC(=O)Nc1ccc2c(c1)C(=O)N(C)[C@H]1CC[C@@H](CC(=O)Nc3cn(C)nc3C)O[C@@H]1CO2 next
no (0)

What do we get for Cn1cnc(S(=O)(=O)N2C[C@@H](O)COC[C@@H]3O[C@H](CC(=O)NC4CCC4)CC[C@H]32)c1 ?
no (0)

Likewise for COCC(=O)N1[C@H](CO)[C@@H](c2ccccc2)C12CN(Cc1cc(F)ccc1F)C2 ?
yes (1)

###

# measurement.protocol: P. falciparum Dd2 growth inhibitors, primary screen, SYBR Green fluorescence, single dose replicates (AID 1159554)
# assay.setup: 72 h, at 10 µM, stronger effect = lower value
Hit rate of the full screen: of about 94,000 compounds, about 2,100 (2.2%) were called active. The sample holds actives, similar compounds and a random draw of the others, so the mix is not that of the screen.
Could you please mark Fulfilled for values of activity change below -60% and Not fulfilled for values at or above it?

Use these answered entries as a reference point.
| structure.smiles | assigned.category |
| --- | --- |
| C[C@H]1CN([C@@H](C)CO)C(=O)c2ccccc2-c2ccccc2CO[C@@H]1CN(C)S(=O)(=O)c1ccc(C(F)(F)F)cc1 | Fulfilled |
| C[C@H](CO)N1C[C@H](C)[C@@H](CN(C)Cc2ccc(C(F)(F)F)cc2)OCc2ccccc2-c2c(n(C)c3ccccc23)C1=O | Not fulfilled |
| C[C@@H]1CN([C@H](C)CO)C(=O)c2c(c3ccccc3n2C)-c2ccccc2CO[C@@H]1CN(C)Cc1ccc(F)cc1 | Fulfilled |
| O=C(c1ccccc1F)N1CC(=O)N2[C@H](CO)[C@@H](c3ccc(-c4cccnc4)cc3)[C@H]2C1 | Not fulfilled |
| C[C@H]1CN([C@@H](C)CO)S(=O)(=O)c2ccc(C#Cc3ccccc3F)cc2O[C@@H]1CN(C)C(=O)c1ccc2c(c1)OCO2 | Fulfilled |

Input C[C@@H]1CN([C@H](C)CO)C(=O)c2c(c3ccccc3n2C)-c2ccccc2CO[C@H]1CN(C)Cc1ccc(F)cc1 ; condition: activity change strictly below -60%. Does it hold?
Fulfilled

Lookup Cn1cnc(CCNC(=O)C[C@H]2CC[C@@H]3[C@H](COC[C@H](O)CN3C(=O)C3CC3)O2)c1
Not fulfilled

Field entry: C[C@@H]1CN([C@@H](C)CO)S(=O)(=O)c2ccc(C#Cc3ccccc3F)cc2O[C@H]1CN(C)C(=O)c1ccc2c(c1)OCO2
Fulfilled

And then COCC(=O)Nc1ccc2c(c1)C(=O)N(C)[C@@H]1CC[C@@H](CC(=O)NCc3cccc(F)c3)O[C@@H]1CO2 , what is it?
Not fulfilled

Follow-up entry: O=C(c1ccccc1F)N1CC(=O)N2[C@H](CO)[C@H](c3ccc(-c4cccnc4)cc3)[C@H]2C1
Fulfilled

What would you report for COc1ccc(NC(=O)N[C@@H]2CC[C@H](CCn3cc(-c4ccc(OC)cc4)nn3)O[C@@H]2CO)cc1 ?
Not fulfilled

Also O=C(Cc1cccnc1)N1CC(=O)N2[C@@H](CO)[C@H](c3ccc(C#CC4CC4)cc3)[C@@H]2C1 , if possible.
Not fulfilled

For C[C@H]1CN([C@@H](C)CO)C(=O)c2c(c3ccccc3n2C)-c2ccccc2CO[C@H]1CN(C)S(=O)(=O)c1ccc(C#N)cc1 then?
Fulfilled
